Data origin: PubChem BioAssay AID1942

Target: Potassium voltage-gated channel subfamily KQT member 2 (Rattus norvegicus)
Assay: rat KCNQ2 channel activation by compounds alone, confirmation, counter-screen for hERG block protector project, cell-based, CHO, FluxOR thallium flux (AID 1942)
Conditions: CHO-KCNQ2 cells, FluxOR thallium flux fluorescence; at 10 µM
Screen size: about 2,400 compounds; about 580 (24%) were called active.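 How the source made its calls: active means activity change at or above the mean plus 3 SD of buffer wells without dofetilide, per plate; inactive means the rest.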 The list is a sample of the results.
Your answer must be one of the following: True for active, False for inactive

Previously resolved entries follow.
In [3]: df
Out[3]:
                                   compound  class_label
0   CN(C)C(=O)O/N=C(\N)COc1ccc(C(C)(C)C)cc1        False
1  COc1ccc(CN2CCCC(C(=O)c3sccc3C)C2)cc1O (centres undefined)        False
2     COc1ccc2c(c1)/C(=C/c1cnc[nH]1)C(=O)N2         True

Hello, I am checking results. What call was entered for N#CCCn1cc(C(=O)Nc2ccccc2Cl)c(-c2ccc(F)cc2)n1 ?
False
